Assay: Quantitative High-Throughput drug screen in 47 multiple myeloma cell lines against the NCATS MIPE library collection: ARD_JJKsccE7 cell viability assay (AID 1918929;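 as to viability: 100% = DMSO-only wells and 0% = media-only wells without cells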)
Settings: ARD myeloma cell line viability, CellTiter-Glo, 48 h; series mostly up to 45.8 µM
Records with an inconclusive call do not appear. Activity calls are given as the source filed them. Calls follow the shape of the dose curve; as a rule, active = well fitted cell-killing curve with a large enough effect; inconclusive = small, poorly fitted or top-dose-only effect, or effect the other way; inactive = no such curve, though single readings can be large or run the other way.
Reply using exactly one outcome from active, inactive

Worked set:
CN1c2cc(O)c(N=NC(N)=O)cc2CC1S(=O)(=O)O (configuration not stated)	active
C=CCn1c(=O)c2cnc(Nc3ccc(N4CCN(C)CC4)cc3)nc2n1-c1cccc(C(C)(C)O)n1	active
C[C@@H]1CN(CC(=O)Nc2ccc3c(c2)Cc2cccc(-c4cc(=O)cc(N5CCOCC5)o4)c2S3)C[C@H](C)O1	active
CC(C)Nc1cc(C(F)(F)F)cc2nc(NC(=O)c3cccnc3)nn12	inactive
CC1(C)OC2=C(C(=O)c3ccccc3C2=O)[C@H](NCc2ccccc2)[C@H]1O	active

Q: Please let me know the test result on file for Cc1ccc2nc(NC(=O)CSc3nc4c(c(=O)n3-c3ccccc3)SCC4)sc2c1 .
A: active

Q: How did this test come out for Cc1cnc(Nc2ccc(F)cc2Cl)nc1-c1c[nH]c(C(=O)N[C@H](CO)c2cccc(Cl)c2)c1 ?
A: active

---

Test: Quantitative High-Throughput drug screen in 47 multiple myeloma cell lines against the NCATS MIPE library collection: KMS11_JCRBsus cell viability assay (AID 1919873); also: nearly all actives have a fitted effect of over 50% in size
Conditions: KMS11 myeloma viability, CellTiter-Glo ATP luminescence, 48 h; series mostly up to 45.8 µM
Records with an inconclusive call do not appear. The source made the active and inactive calls. Calls come from the whole dose curve; as a rule, active = well fitted cell-killing curve with a large enough effect; inconclusive = small, poorly fitted or top-dose-only effect, or effect the other way; inactive = no such curve, though single readings can be large or run the other way.
Outcomes you can answer with include only these: Y (active), N (inactive)

COc1ccc(-c2cc3c(C)nc(N)nc3n(C3CCC(OCCO)CC3)c2=O)cn1 (stereo not drawn)	Y
C=C1C(=CC=C2CCC[C@]3(C)[C@@H]([C@H](C)C=C[C@H](C)C(C)C)CC[C@@H]23)C[C@@H](O)C[C@@H]1O	Y

Now, please, on to the next molecule.
Q: Each molecule tested received a call. Report the one for Cn1c(CNc2ccc(C(=N)N)cc2)nc2cc(C(=O)N(CCC(=O)O)c3ccccn3)ccc21 .
A: N

---

Test: qHTS of pediatric cancer cell lines to identify multiple opportunities for drug repurposing: Confirmatory screen for TC32 cells (AID 1347118);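 also: potency is read from the fitted curve at half-maximal effect; cells exposed to compound for 48 h before the read; nearly all actives have a fitted effect of over 65% in size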
Conditions: TC32 Ewing sarcoma cells viability qHTS; series mostly up to 45.9 µM
Description: Drug repurposing or repositioning has been offered as a strategy for drug development in oncology programs. […] [1] Shen, M et al. Quantitative high-throughput phenotypic screening of pediatric cancer cell lines identifies multiple opportunities for drug repurposing. […] Cells were assayed in growth media at a density of 500-1,000 cells/well. […] After a 15min incubation at room temperature, samples were analyzed for luminescence intensity using a ViewLux High-throughput CCD imager equipped with clear filters.
Inconclusive results are not listed. The source made the active and inactive calls. Calls come from the whole dose curve; as a rule, active = well fitted cell-killing curve with a large enough effect; inconclusive = small, poorly fitted or top-dose-only effect; inactive = no such curve, though single readings can be large or run the other way.
Reported values of Potency for individual entries

As a guide, the following entries are already answered.
COc1cc(=C2C=c3ccccc3=N2)[nH]c1=Cc1[nH]c(C)cc1C	7370 nM (active)
Cc1nc2ccc(CN(C)c3ccc(C(=O)N[C@@H](CCC(=O)O)C(=O)O)s3)cc2c(=O)[nH]1	52.2 nM (active)
CC=C1NC(=O)[C@H]2CSSCCC=C[C@H](CC(=O)N[C@H](C(C)C)C(=O)N2)OC(=O)[C@H](C(C)C)NC1=O	14700 nM (active)

Q: Looking for the measured Potency of Nc1ncnc2c1c(-c1cnc3[nH]ccc3c1)nn2C1CCCC1 , can you help?
A: 1470 nM (active)

Q: Look up Potency: Cc1[nH]nc2ccc(-c3cncc(OC[C@@H](N)Cc4ccccc4)c3)cc12
A: 2930 nM (active)

Q: I am curious: what Potency value has been reported for Nc1ccccc1NC(=O)c1ccc(CNC(=O)OCc2cccnc2)cc1 ?
A: 3020 nM (active)

Q: // lookup Potency for COC(=O)Nc1nc2ccc(C(=O)c3ccc(F)cc3)cc2[nH]1
A: 1170 nM (active)

Q: Any idea what its Potency is? The compound is CCS(=O)(=O)c1cccc(-c2cc(C(=O)NC3CCN(C)CC3)c(C)c3[nH]c4ncc(C)cc4c23)c1
A: 117 nM (active)

Q: Can you share its Potency? I mean this compound: C=CC(=O)Nc1cccc(Oc2nc(Nc3ccc(N4CCN(C)CC4)cc3)ncc2Cl)c1
A: 1170 nM (active)

Q: Entry COC(=O)[C@]12CCC(C)(C)C[C@@H]1[C@@H]1C(=O)C=C3[C@@]4(C)C=C(C#N)C(=O)C(C)(C)[C@@H]4CC[C@@]3(C)[C@]1(C)CC2 : reported Potency = ?
A: 3290 nM (active)

Q: Which Potency value belongs to O=C(NC1CCNCC1)c1[nH]ncc1NC(=O)c1c(Cl)cccc1Cl ?
A: 2400 nM (active)

Q: Find the recorded Potency belonging to C[C@@H](Oc1cc(-c2cnn(C3CCNCC3)c2)cnc1N)c1c(Cl)ccc(F)c1Cl and report it.
A: 4650 nM (active)

Q: Give its Potency value. Item: CC(C)c1cc(C(=O)N2Cc3ccc(CN4CCN(C)CC4)cc3C2)c(O)cc1O
A: 465 nM (active)

---

Assay: Quantitative High-Throughput drug screen in 47 multiple myeloma cell lines against the NCATS MIPE library collection: KHM11_PLB cell viability assay (AID 1918962); also: nearly all actives have a fitted effect of over 35% in size
Conditions: KHM11 myeloma cell viability, CellTiter-Glo ATP luminescence, 48 h; series mostly up to 45.8 µM
Inconclusive results are not listed. Active and inactive are the calls of the source. The call rests on the fitted dose curve; in most records, active means well fitted cell-killing curve with a large enough effect; inconclusive means small, poorly fitted or top-dose-only effect, or effect the other way; inactive means no such curve, though single readings can be large or run the other way.
The reply should be one of these categories: True = active, False = inactive

Sample answers from the record:
O=c1[nH]nc(Sc2ncc([N+](=O)[O-])s2)n1-c1ccc2c(c1)OCCO2	True
CN(C)c1nc(Cc2ccc(NC(=O)c3ccc4ccccc4c3)cc2)nc(Cl)c1CC(=O)O	False
Cc1ccc(-c2ncn(-c3ccc(Nc4nccc(-c5cccc(N6CCOCC6)c5)n4)cc3)n2)cn1	True

Q: # fetch the recorded call for COc1ccc(F)c(F)c1C(=O)c1cnc(NC2CCN(S(C)(=O)=O)CC2)nc1N here
A: True

Q: Name the outcome recorded for COC(=O)c1ccc2c(C(=Nc3ccc(N(C)C(=O)CN4CCN(C)CC4)cc3)c3ccccc3)c(O)[nH]c2c1 in the assay.
A: True

Q: # fetch the recorded call for Cc1cc(Nc2ncnc3ccc(-c4ccc(CNCCS(C)(=O)=O)o4)cc23)ccc1Oc1ccn2ncnc2c1 here
A: True

---

Test: qHTS drug screen for cell cycle checkpoint inhibitors in PARPi-resistant BRCA-mutant ovarian cancer cell lines. (AID 1963452)
Settings: PEO1/OlaR viability, CellTiter-Glo luminescence, 96 h; active compounds read low
Z-AUC for assorted molecules
// return just the number, without any unit appended

# example entries with known answers
N#Cc1c(O)c2c(-c3ccc(-c4ccccc4O)cc3)csc2[nH]c1=O	0.825
Cc1cn(-c2cc(NC(=O)c3ccc(C)c(Nc4nccc(-c5cccnc5)n4)c3)cc(C(F)(F)F)c2)cn1	0.642
COc1cc2ncn(-c3cc(OCc4ccccc4C(F)(F)F)c(C(N)=O)s3)c2cc1OC	-1.24
Cc1ccc(C(=O)Nc2cccc(C(F)(F)F)c2)cc1-c1ccc2nc(NCCN3CCOCC3)ncc2c1	0.224
Cc1cc(Nc2nc(N[C@@H](C)c3ccc(F)cc3)c(C#N)cc2F)n[nH]1	0.0536

Q: Need Z-AUC, item CNC(=O)c1ccc(-c2cnc3ncc(Cc4ccc5ncccc5c4)n3n2)cc1F
A: -0.273

Q: Any idea what Z-AUC was measured for Nc1nc(NCCNc2ncc(-n3ccnc3)c(-c3ccc(Cl)cc3Cl)n2)ccc1[N+](=O)[O-] ?
A: 0.218

Q: I am curious: what Z-AUC value has been reported for C=CC(=O)Nc1cc2c(Nc3ccc(F)c(Cl)c3)ncnc2cc1C#CC(C)(C)N1CCN(C)CC1 ?
A: -0.203

Q: Z-AUC for CC(=O)Nc1nc(C)c(-c2ccc(Cl)c(S(=O)(=O)NCCO)c2)s1 ?
A: -1.67

Q: Bench note: what Z-AUC did C=CC(=O)Nc1cc2c(Nc3ccc(F)c(Cl)c3)ncnc2cc1OCCCN1CCOCC1 show?
A: -0.343

Q: Entry C[C@@H]1CN(CC(=O)Nc2ccc3c(c2)Cc2cccc(-c4cc(=O)cc(N5CCOCC5)o4)c2S3)C[C@H](C)O1 : reported Z-AUC = ?
A: 0.729

---

# Potency per record follows
Assay: NS1 protein of Zika virus - qHTS assay to identify small molecule inhibitors in human HEK 293 cells (AID 1347053); also: potency is read from the fitted curve at half-maximal effect; nearly all actives have a fitted effect of over 55% in size
Settings: HEK293 ZIKV MR766 infection, NS1 TR-FRET, 24 h; series mostly up to 46.1 µM
Results filed as inconclusive are left out. The source made the active and inactive calls. Calls come from the whole dose curve; as a rule, active = well fitted inhibition curve with a large enough effect; inconclusive = small, poorly fitted or top-dose-only effect; inactive = no such curve, though single readings can be large or run the other way.

COc1ccc(OC)c(-c2nnc3ccc(-c4ccc(OC)c(O[C@@H]5CCOC5)c4)nn23)c1	9.35 µM (active)
Nc1nc(Nc2ccc(S(N)(=O)=O)cc2)nn1C(=O)c1c(F)cccc1F	18.7 µM (active)

We now examine a further compound.
Q: Need Potency, item CC(C)c1cnn2c(NCc3ccccc3)cc(N[C@@H](CO)[C@H](O)CO)nc12
A: 0.526 µM (active)
